Value source: ChEMBL document CHEMBL1165981

- system: Thermolysin (Bacillus thermoproteolyticus, UniProt P00800)
- Sequence (P00800 whole entry): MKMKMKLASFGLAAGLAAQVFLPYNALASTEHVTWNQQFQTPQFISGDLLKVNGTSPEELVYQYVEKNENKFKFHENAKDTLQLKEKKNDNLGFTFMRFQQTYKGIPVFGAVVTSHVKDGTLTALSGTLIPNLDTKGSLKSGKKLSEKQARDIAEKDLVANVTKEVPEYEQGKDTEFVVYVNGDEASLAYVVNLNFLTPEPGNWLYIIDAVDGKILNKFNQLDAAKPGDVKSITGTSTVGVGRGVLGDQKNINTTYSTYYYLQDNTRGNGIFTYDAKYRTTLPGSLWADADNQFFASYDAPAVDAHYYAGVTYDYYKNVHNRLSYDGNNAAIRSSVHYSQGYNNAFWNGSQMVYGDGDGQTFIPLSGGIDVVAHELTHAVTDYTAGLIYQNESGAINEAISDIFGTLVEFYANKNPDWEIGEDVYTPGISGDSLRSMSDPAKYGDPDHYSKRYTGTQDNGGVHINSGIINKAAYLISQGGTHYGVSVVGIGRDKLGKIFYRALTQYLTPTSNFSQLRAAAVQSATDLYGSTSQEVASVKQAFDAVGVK
- test: Inhibition of Bacillus thermoproteolyticus thermolysin after 15 mins by microplate spectrophotometric analysis in presence of 1.0 mM substrate FaGLa
- run-parameters: read-out: IC50
quantity: pIC50
The meaning of pIC50 here: minus log10 of the concentration in molar units.

Solved cases (6 shown):
[[record]]
item_smiles = "CC(C)=NN1C(=O)c2ccccc2NC1(C)C"
assay_result = 6.61

[[record]]
item_smiles = "O=c1[nH]c(-c2ccc(Cl)cc2)nc2ccccc12"
assay_result = 5.90

[[record]]
item_smiles = "Cc1ccc(-c2nc3ccccc3c(=O)n2-c2nccs2)cc1"
assay_result = 4.11

[[record]]
item_smiles = "Nn1c(-c2ccc(Cl)cc2)nc2ccccc2c1=O"
assay_result = 1.89

[[record]]
item_smiles = "Nn1c(C(F)(F)F)nc2ccccc2c1=O"
assay_result = 4.42

[[record]]
item_smiles = "Nn1c(-c2ccc([N+](=O)[O-])cc2)nc2ccccc2c1=O"
assay_result = 2.51


// pIC50 value for Cc1nc2ccccc2c(=O)n1N : 4.26

// pIC50 value for O=c1c2ccccc2nc(C(F)(F)F)n1-c1ccccc1 : 7.94

// pIC50 value for CO/C(C)=N/n1c(-c2ccccc2)nc2ccccc2c1=O : 0.91

* * *

- system: Thermolysin (Bacillus thermoproteolyticus, UniProt P00800)
- Sequence (P00800 whole entry): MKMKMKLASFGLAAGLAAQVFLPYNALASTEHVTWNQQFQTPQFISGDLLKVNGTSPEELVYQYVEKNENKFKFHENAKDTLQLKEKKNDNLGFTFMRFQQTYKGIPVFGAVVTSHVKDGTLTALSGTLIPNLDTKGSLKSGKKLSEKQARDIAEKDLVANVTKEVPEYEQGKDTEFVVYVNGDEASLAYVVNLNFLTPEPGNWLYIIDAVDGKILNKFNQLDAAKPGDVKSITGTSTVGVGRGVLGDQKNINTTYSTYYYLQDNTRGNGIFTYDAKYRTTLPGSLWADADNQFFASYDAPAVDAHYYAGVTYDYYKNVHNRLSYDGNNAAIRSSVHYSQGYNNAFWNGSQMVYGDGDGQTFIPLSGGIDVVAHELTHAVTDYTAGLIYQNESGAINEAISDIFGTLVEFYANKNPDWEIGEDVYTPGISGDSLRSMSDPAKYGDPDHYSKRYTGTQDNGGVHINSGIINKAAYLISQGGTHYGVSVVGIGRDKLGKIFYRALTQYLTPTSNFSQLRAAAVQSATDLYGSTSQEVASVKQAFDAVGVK
- test: Inhibition of Bacillus thermoproteolyticus thermolysin after 15 mins by microplate spectrophotometric analysis in presence of 0.5 to 2 mM substrate FaGLa
// returns -1 unless Ki is strictly below 50 µM, in which case 1

# example entries with known answers
[[record]]
item_smiles = "CC(C)=NN1C(=O)c2ccccc2NC1(C)C"
group = 1

[[record]]
item_smiles = "O=c1[nH]c(-c2ccc(Cl)cc2)nc2ccccc12"
group = 1

[[record]]
item_smiles = "O=c1c2ccccc2nc(C(F)(F)F)n1-c1ccccc1"
group = 1

[[record]]
item_smiles = "CO/C(C)=N/n1c(-c2ccccc2)nc2ccccc2c1=O"
group = -1


Find out if reported Ki for Cc1nc2ccccc2c(=O)n1N is less than 50 µM -1

Find out if reported Ki for Cc1ccc(-c2nc3ccccc3c(=O)n2-c2nccs2)cc1 is less than 50 µM -1
